Test system: HepG2
Assay: Anti-proliferative assay (cellular IC50), HepG2
Conditions: Homo sapiens, HepG2, 72 h, read-out: In Vitro Cellular IC50 HepG2
pIC50: −log10 of the molar value.
measured quantity: pIC50

Example entries begin here.
chemical smiles | result
CC(C)n1cnc2c(-c3cccc(OCCCC(=O)NO)c3)nc(N3CCOCC3)nc21 | 5.70 to 6.30
O=C(CCCOc1cccc(-c2nc(N3CCOCC3)nc3c2ncn3C2CCCC2)c1)NO | 5.70 to 6.30

Request: Request the reported pIC50 associated with CCn1c(CN(C)Cc2ccc(C(=O)NO)cc2)nc2c(N3CCOCC3)nc(-c3cnc(N)nc3)nc21
Result: 5.70 to 6.30

Request: Returns the measured pIC50 for the input compound. Input: CC(C)n1ccc2c(-c3cccc(OCCCC(=O)NO)c3)nc(N3CCCC3)nc21
Result: 5.00 to 5.70

###

Target: HDAC (HeLa nuclear extracts)
Experiment: HDAC enzyme assay, HeLa nuclear extracts
Settings: read-out: In Vitro Enzymatic IC50 HDAC (HeLa)
pIC50: −log10 of the molar value.
measured quantity: pIC50

Field: example entries. Status: answers known.
molecule | measured quantity | result
CCn1c(CN(C)Cc2ccc(/C=C/C(=O)NO)cc2)nc2c(N3CCOCC3)nc(-c3cccc(NC(C)=O)c3)nc21 [compound 92] | pIC50 | 6.00 to 7.00
CC(C)n1cnc2c(-c3ccc(F)c(OCCCC(=O)NO)c3)nc(N3CCCC3)nc21 [compound 63] | pIC50 | 7.00 to 8.00
CC(C)n1cnc2c(N3CCOCC3)nc(-c3ccc(OCCCCCCC(=O)NO)cc3)nc21 [compound 81] | pIC50 | > 8.00
CC(C)n1c(N2CCC(C(=O)NO)CC2)nc2c(N3CCOCC3)nc(-c3cnc(N)nc3)nc21 [compound 86] | pIC50 | 5.00 to 6.00
O=C(CCCOc1cccc(-c2nc(N3CCOCC3)nc3c2ncn3C2CCCC2)c1)NO [compound 100] | pIC50 | 7.00 to 8.00

Request: Any idea what pIC50 was measured for CC(C)n1cnc2c(N3CCOCC3)nc(-c3cccc(OCCCC(=O)NO)c3)nc21 [compound 83] ?
Result: 6.00 to 7.00

Request: pIC50 for CCn1c(CN(C)Cc2ccc(C(=O)NO)cc2)nc2c(N3CCOCC3)nc(-c3cnc(N)nc3)nc21 [compound 7] ?
Result: 6.00 to 7.00

Request: What does the data say about its pIC50? Entry: CCn1c(CN(C)Cc2ccc(/C=C/C(=O)NO)cc2)nc2c(N3CCOCC3)nc(-c3ccc(C(N)=O)cc3)nc21 [compound 90]
Result: 6.00 to 7.00

Request: Quick check: pIC50 of O=C(CCCCCCn1cnc2c(N3CCC(CO)CC3)nc(-c3cccc(CO)c3)nc21)NO [compound 103] ?
Result: > 8.00

Request: Consider the molecule shown here: CC(C)n1cnc2c(-c3cccc(OCCCC(=O)NO)c3)nc(N3CCOCC3)nc21 [compound 1] What is its recorded pIC50?
Result: 7.00 to 8.00

Request: Form field: reported pIC50 of CCn1c(CN(C)Cc2ccc(/C=C/C(=O)NO)cc2)nc2c(N3CCOCC3)nc(-c3ccc(OC)nc3)nc21 [compound 93]
Result: 5.00 to 6.00

Request: Requested read-out: pIC50. Entry: CC(C)n1cnc2c(N3CCOCC3)nc(-c3cccc(OCCCCCCC(=O)NO)c3)nc21 [compound 84]
Result: 7.00 to 8.00

Request: Any idea what its pIC50 is? The molecule is CC(C)n1cnc2c(-c3cccc(COCCCCC(=O)NO)c3)nc(N3CCOCC3)nc21 [compound 23]
Result: 7.00 to 8.00

Request: Field request: pIC50 | item: CCn1c(CNCCCCCC(=O)NO)nc2c(N3CCOCC3)nc(-c3cnc(N)nc3)nc21 [compound 87]
Result: 6.00 to 7.00

Request: I have this molecule here, CCC(CC)n1cnc2c(-c3cccc(OCCCC(=O)NO)c3)nc(N3CCOCC3)nc21 [compound 101] , and I need its recorded pIC50.
Result: 7.00 to 8.00

Request: Can you share its pIC50? I mean this molecule: CC(C)n1ccc2c(-c3cccc(OCCCC(=O)NO)c3)nc(N3CCCC3)nc21 [compound 75]
Result: 7.00 to 8.00

Request: Value lookup for pIC50; key = CC(C)n1cnc2c(-c3ccc(F)c(OCCCC(=O)NO)c3)nc(N3CCOCC3)nc21 [compound 62]
Result: 7.00 to 8.00
